Source: paper PMC11981937

- TEST_SUMMARY: in vivo
- REPORTED_CONDITIONS: dog
MEASUREMENT_TYPE: Vd

q: Using the record for C[C@H]1Cn2ncc(C(=O)Nc3cccc(C#N)c3)c2C(=O)N1c1ccc(C(F)(F)c2ccccc2)cc1 , report its Vd.
a: 8.2 L/kg

---

- System: IBV
- TEST_SUMMARY: microbe, parasite or virus in culture
- Type: cell-based, infectious bronchitis virus
- REPORTED_CONDITIONS: Avian coronavirus, Huh-7, read-out: Median EC50
MEASUREMENT_TYPE: pEC50
Quick note: pEC50 values are minus log10 of concentrations in mol/L.

q: Using the record for C[C@H]1Cn2ncc(C(=O)Nc3cccc(C#N)c3)c2C(=O)N1c1ccc(C(F)(F)c2ccccc2)cc1 [JNJ-9676] , report its pEC50.
a: 5.10

---

- TEST_SUMMARY: in vivo
- REPORTED_CONDITIONS: cynomolgus monkey
MEASUREMENT_TYPE: Vd (L/kg)
Your answer should be a plain number; it is taken to be in L/kg.

q: Using the record for C[C@H]1Cn2ncc(C(=O)Nc3cccc(C#N)c3)c2C(=O)N1c1ccc(C(F)(F)c2ccccc2)cc1 , report its Vd.
a: 5.1

---

- TEST_SUMMARY: in vivo
- REPORTED_CONDITIONS: cynomolgus monkey, po
MEASUREMENT_TYPE: bioavailability

q: Using the record for C[C@H]1Cn2ncc(C(=O)Nc3cccc(C#N)c3)c2C(=O)N1c1ccc(C(F)(F)c2ccccc2)cc1 , report its bioavailability.
a: > 30%

---

- TEST_SUMMARY: in vivo
- REPORTED_CONDITIONS: female, Syrian golden, hamster, po, 50 mg/kg, Concentration, individual animal, female hamster, PO 50mg/kg, 1 h
MEASUREMENT_TYPE: concentration at 1 h (ng/mL)
Your answer should be a plain number; it is taken to be in ng/mL.

q: Using the record for C[C@H]1Cn2ncc(C(=O)Nc3cccc(C#N)c3)c2C(=O)N1c1ccc(C(F)(F)c2ccccc2)cc1 , report its concentration at 1 h.
a: 1450

---

- TEST_SUMMARY: in vivo
- REPORTED_CONDITIONS: cynomolgus monkey
MEASUREMENT_TYPE: clearance

q: Using the record for C[C@H]1Cn2ncc(C(=O)Nc3cccc(C#N)c3)c2C(=O)N1c1ccc(C(F)(F)c2ccccc2)cc1 , report its clearance.
a: 1.9 mL/min/kg

---

- TEST_SUMMARY: in vivo
- REPORTED_CONDITIONS: female, Syrian golden, hamster, iv, 1 mg/kg, Concentration, individual animal
MEASUREMENT_TYPE: concentration at 12 h (µg/mL)
Your answer should be a plain number; it is taken to be in µg/mL.

q: Using the record for C[C@H]1Cn2ncc(C(=O)Nc3cccc(C#N)c3)c2C(=O)N1c1ccc(C(F)(F)c2ccccc2)cc1 , report its concentration at 12 h.
a: 0.0267

---

- TEST_SUMMARY: in vivo
- REPORTED_CONDITIONS: female, Syrian golden, hamster, po, 50 mg/kg, Concentration, average, female hamster, PO 50mg/kg, 2 h, n=3
MEASUREMENT_TYPE: concentration at 2 h
Numeric answer plus unit only.

q: Using the record for C[C@H]1Cn2ncc(C(=O)Nc3cccc(C#N)c3)c2C(=O)N1c1ccc(C(F)(F)c2ccccc2)cc1 [JNJ-9676] , report its concentration at 2 h.
a: 1760 ng/mL
